# Study target: FGFR3 (h) (Homo sapiens, UniProt P22607)
# Sequence (P22607 23-806): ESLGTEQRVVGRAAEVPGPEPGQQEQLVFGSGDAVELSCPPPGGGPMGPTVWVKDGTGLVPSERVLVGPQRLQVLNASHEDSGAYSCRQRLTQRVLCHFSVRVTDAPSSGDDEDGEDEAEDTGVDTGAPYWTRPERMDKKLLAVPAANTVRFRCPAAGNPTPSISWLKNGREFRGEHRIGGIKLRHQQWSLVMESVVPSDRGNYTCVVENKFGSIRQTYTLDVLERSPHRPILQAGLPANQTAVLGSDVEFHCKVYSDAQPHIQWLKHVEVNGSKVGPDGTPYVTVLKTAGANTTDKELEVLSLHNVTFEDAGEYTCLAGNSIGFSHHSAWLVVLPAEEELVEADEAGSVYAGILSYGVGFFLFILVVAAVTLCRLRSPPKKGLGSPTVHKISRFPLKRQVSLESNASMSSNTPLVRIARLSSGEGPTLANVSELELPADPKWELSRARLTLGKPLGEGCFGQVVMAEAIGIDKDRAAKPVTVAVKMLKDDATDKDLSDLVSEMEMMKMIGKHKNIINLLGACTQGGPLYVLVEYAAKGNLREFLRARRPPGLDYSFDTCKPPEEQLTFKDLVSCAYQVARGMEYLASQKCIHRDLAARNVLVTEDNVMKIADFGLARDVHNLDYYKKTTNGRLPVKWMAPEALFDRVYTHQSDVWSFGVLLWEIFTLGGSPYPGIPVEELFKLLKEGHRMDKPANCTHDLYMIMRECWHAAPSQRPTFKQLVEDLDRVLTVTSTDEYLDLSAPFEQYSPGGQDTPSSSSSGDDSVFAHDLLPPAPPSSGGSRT
# Experimental details: FGFR3 (enzymatic assay), TR-FRET
# Type: biochemical
# Run conditions: read-out: FGFR 3 pIC50 (converted)

# Compound, Study target, IC50, nM
data = [
    ("COc1cc(OC)c(F)c(N(Cc2n[nH]c(=O)o2)c2ccc3ncc(-c4cnn(C)c4)nc3n2)c1", "FGFR3 (h) (Homo sapiens, UniProt P22607)", 1.05),
    ("COc1cc(OC)cc(N(Cc2nnc(N)o2)c2ccc3ncc(-c4cnn(C)c4)nc3n2)c1", "FGFR3 (h) (Homo sapiens, UniProt P22607)", 0.933),
    ("COc1cc(OC)cc(N(Cc2ncc[nH]2)c2ccc3ncc(-c4cccnc4)nc3n2)c1", "FGFR3 (h) (Homo sapiens, UniProt P22607)", 1.15),
    ("COc1cc(OC)cc(N(CCS(C)(=O)=O)c2ccc3ncc(-c4cnn(CCS(C)(=O)=O)c4)nc3n2)c1", "FGFR3 (h) (Homo sapiens, UniProt P22607)", 3.39),
    ("COc1cc(/N=c2\\ccc3ncc(-c4cnn(C)c4)nc3n2CC2COC(=O)N2)c(F)c(OC)c1 (stereo not drawn)", "FGFR3 (h) (Homo sapiens, UniProt P22607)", 0.741),
    ("COc1cc(OC)c(F)c(N(C)c2ccc3ncc(-c4cnn(C)c4)nc3n2)c1F (single isomer, unassigned)", "FGFR3 (h) (Homo sapiens, UniProt P22607)", 0.437),
    ("COc1cc(/N=c2\\ccc3ncc(-c4cnn(C)c4)nc3n2CC(C)(C)O)cc(OC)c1", "FGFR3 (h) (Homo sapiens, UniProt P22607)", 1.07),
    ("COc1cc(OC)c(F)c(N(CC(O)COC(C)C)c2ccc3ncc(-c4cnn(CC(O)COC(C)C)c4)nc3n2)c1 (single isomer, unassigned)", "FGFR3 (h) (Homo sapiens, UniProt P22607)", 4.07),
    ("CCn1/c(=N/c2c(F)c(OC)cc(OC)c2F)ccc2ncc(-c3cnn(C)c3)nc21", "FGFR3 (h) (Homo sapiens, UniProt P22607)", 0.692),
    ("COc1cc(OC)c(F)c(N(Cc2ncc[nH]2)c2ccc3ncc(-c4ccccc4)nc3n2)c1", "FGFR3 (h) (Homo sapiens, UniProt P22607)", 1.45),
    ("COc1cc(OC)cc(N(CC2CCCCO2)c2ccc3ncc(-c4cnn(C)c4)nc3n2)c1 (stereo not drawn)", "FGFR3 (h) (Homo sapiens, UniProt P22607)", 2.69),
    ("COc1cc(OC)c(F)c(N(CC(C)(C)O)c2ccc3ncc(-c4cnn(CC(C)(C)O)c4)nc3n2)c1 (single isomer, unassigned)", "FGFR3 (h) (Homo sapiens, UniProt P22607)", 3.72),
    ("COc1cc(O)c(F)c(N(Cc2ncc[nH]2)c2ccc3ncc(-c4cnn(C)c4)nc3n2)c1", "FGFR3 (h) (Homo sapiens, UniProt P22607)", 1.07),
    ("COc1cc(/N=c2\\ccc3ncc(-c4cnn(C)c4)nc3n2CC2CCC(=O)N2CCO)c(F)c(OC)c1 (single isomer, unassigned) [Compound 219]", "FGFR3 (h) (Homo sapiens, UniProt P22607)", 1.29),
    ("COc1cc(OC)cc(N(CCO)c2ccc3ncc(-c4ccncc4)nc3n2)c1", "FGFR3 (h) (Homo sapiens, UniProt P22607)", 3.8),
]

###

# Study target: Ba/F3-FGFR4-transfected cells (Homo sapiens)
# Sequence (P22455 whole entry, change not shown): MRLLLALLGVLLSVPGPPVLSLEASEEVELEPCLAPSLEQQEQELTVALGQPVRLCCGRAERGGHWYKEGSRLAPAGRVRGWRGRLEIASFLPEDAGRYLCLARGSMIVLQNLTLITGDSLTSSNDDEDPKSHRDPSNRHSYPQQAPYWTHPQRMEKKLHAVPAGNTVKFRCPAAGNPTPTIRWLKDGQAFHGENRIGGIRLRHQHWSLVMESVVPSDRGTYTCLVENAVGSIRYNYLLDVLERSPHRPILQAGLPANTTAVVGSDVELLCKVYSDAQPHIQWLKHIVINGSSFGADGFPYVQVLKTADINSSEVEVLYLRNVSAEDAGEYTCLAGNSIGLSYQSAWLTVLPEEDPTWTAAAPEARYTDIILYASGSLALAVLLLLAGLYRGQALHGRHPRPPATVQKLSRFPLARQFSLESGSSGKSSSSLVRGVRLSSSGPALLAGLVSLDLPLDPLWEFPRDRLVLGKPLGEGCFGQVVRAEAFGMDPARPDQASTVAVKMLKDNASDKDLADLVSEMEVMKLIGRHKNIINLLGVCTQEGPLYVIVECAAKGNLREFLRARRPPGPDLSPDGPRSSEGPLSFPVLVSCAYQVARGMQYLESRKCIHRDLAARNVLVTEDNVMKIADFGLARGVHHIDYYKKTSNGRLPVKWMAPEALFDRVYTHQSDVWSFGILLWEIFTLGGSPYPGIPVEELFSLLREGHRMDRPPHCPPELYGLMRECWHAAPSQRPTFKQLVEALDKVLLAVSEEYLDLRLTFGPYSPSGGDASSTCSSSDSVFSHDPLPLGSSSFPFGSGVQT
# Experimental details: Ba/F3-FGFR4 cellular proliferation assay, Alamar Blue
# Type: cell-based
# Procedure: Ba/F3-FGFR4 (Cellular Proliferation Assay) In a 384 well plate, 100 n1 of compound dilution in DMSO was sprayed before adding 50 μl cell culture medium (phenol red free RPMI-1640, 10% FBS, 2 mM L-Glutamine and 50 μg/ml Gentamycin) containing 20000 cells per well of Ba/F3-FGFR4-transfected cells. Cells were put in an incubator at 37° C. and 5% CO2. […]
Counter-ions that a name gives are not always drawn.
Measure name: BAF3-FGFR4 pIC50

# Compound, Measure name, Test value
data = [
    ("COc1cc(OC)c(F)c(N(Cc2c[nH]nn2)c2ccc3ncc(-c4cnn(C)c4)nc3n2)c1 [Compound 258]", "BAF3-FGFR4 pIC50", 7.03),
    ("COc1cc(OC)cc(N(CCNC2COC2)c2ccc3ncc(-c4cnn(C)c4)nc3n2)c1 [Compound 290]", "BAF3-FGFR4 pIC50", 6.32),
    ("COc1cc(OC)cc(N(Cc2ncc[nH]2)c2ccc3ncc(-c4cnn(C5CCNCC5)c4)nc3n2)c1 [Compound 227]", "BAF3-FGFR4 pIC50", 6.91),
    ("COC(=O)CN(c1ccc2ncc(-c3cnn(C)c3)nc2n1)c1cc(OC)cc(OC)c1F [Compound 214]", "BAF3-FGFR4 pIC50", 6.52),
    ("COc1cc(OC)cc(N(Cc2ncc[nH]2)c2ccc3ncc(-c4cnn(C)c4)nc3n2)c1 [Compound 24]", "BAF3-FGFR4 pIC50", 7.77),
    ("COc1cc(OC)c(F)c(N(CCO)c2ccc3ncc(-c4cnn(C)c4)nc3n2)c1F [Compound 20]", "BAF3-FGFR4 pIC50", 7.63),
    ("COCC(O)CN(c1ccc2ncc(-c3cnn(C)c3)nc2n1)c1c(F)c(OC)cc(OC)c1F (centres unmarked) [Compound 50]", "BAF3-FGFR4 pIC50", 7.66),
    ("COc1cc(OC)c(Cl)c(N(CC2CCC(=O)N2)c2ccc3ncc(-c4cnn(C)c4)nc3n2)c1Cl (single isomer, unassigned) [Compound 88]", "BAF3-FGFR4 pIC50", 5.65),
    ("CNCCN(c1ccc2ncc(-c3cnn(C)c3)nc2n1)c1c(F)ccc(OC)c1Cl [Compound 69]", "BAF3-FGFR4 pIC50", 6.11),
    ("COc1cc(OC)c(F)c(N(Cc2nc(C)c[nH]2)c2ccc3ncc(-c4cnn(C)c4)nc3n2)c1 [Compound 135]", "BAF3-FGFR4 pIC50", 8.05),
    ("CCn1/c(=N/c2c(F)c(OC)cc(OC)c2F)ccc2ncc(-c3cnn(C)c3)nc21 [Compound 257]", "BAF3-FGFR4 pIC50", 7.98),
    ("COc1cc(OC)cc(N(CC2CCC(=O)N2)c2ccc3ncc(-c4cnn(C)c4)nc3n2)c1 (centres unmarked) [Compound 49]", "BAF3-FGFR4 pIC50", 6.24),
    ("COc1cc(OC)c(F)c(N(CC2CCOC2)c2ccc3ncc(-c4cnn(C)c4)nc3n2)c1 (single isomer, unassigned) [Compound 171]", "BAF3-FGFR4 pIC50", 6.55),
    ("COc1cc(OC)c(F)c(N(CC(O)COC(C)C)c2ccc3ncc(-c4cnn(CC(O)COC(C)C)c4)nc3n2)c1 (single isomer, unassigned) [Compound 252]", "BAF3-FGFR4 pIC50", 6.95),
    ("COc1cc(OC)c(F)c(N(Cc2cc(C)on2)c2ccc3ncc(-c4cnn(C)c4)nc3n2)c1 [Compound 180]", "BAF3-FGFR4 pIC50", 7.10),
    ("COc1cc(OC)c(F)c(N(Cc2nc(OC)cc(OC)n2)c2ccc3ncc(-c4cnn(C)c4)nc3n2)c1 [Compound 220]", "BAF3-FGFR4 pIC50", 5.83),
    ("COCC(O)Cn1/c(=N/c2cc(OC)cc(OC)c2F)ccc2ncc(-c3cnn(C)c3)nc21 (single isomer, unassigned) [Compound 60]", "BAF3-FGFR4 pIC50", 7.76),
    ("COc1cc(/N=c2\\ccc3ncc(-c4cnn(C)c4)nc3n2CC2CCC(=O)N2CCO)c(F)c(OC)c1 (centres unmarked) [Compound 247]", "BAF3-FGFR4 pIC50", 6.87),
    ("COc1cc(/N=c2\\ccc3ncc(-c4cnn(C)c4)nc3n2Cc2cn[nH]c2)c(F)c(OC)c1 [Compound 155]", "BAF3-FGFR4 pIC50", 8.09),
    ("COc1cc(OC)c(F)c(N(Cc2ncc[nH]2)c2ccc3ncc(-c4cnn(C)c4)nc3n2)c1 [23-lactate salt]", "BAF3-FGFR4 pIC50", 8.13),
    ("COc1cc(OC)c(F)c(N(CC(O)COC(C)C)c2ccc3ncc(-c4cnn(C)c4)nc3n2)c1F (centres unmarked) [Compound 61]", "BAF3-FGFR4 pIC50", 7.56),
    ("COc1cc(OC)c(F)c(N(CCNC(C)=O)c2ccc3ncc(-c4cnn(C)c4)nc3n2)c1 [Compound 242]", "BAF3-FGFR4 pIC50", 7.22),
    ("COc1cc(OC)c(F)c(N(CCNC(C)C)c2ccc3ncc(-c4cnn(C)c4)nc3n2)c1 [Compound 2]", "BAF3-FGFR4 pIC50", 7.64),
    ("COc1cc(OC)c(F)c(N(CCN(C2COC2)C2COC2)c2ccc3ncc(-c4cnn(C)c4)nc3n2)c1 [Compound 222]", "BAF3-FGFR4 pIC50", 6.55),
]
